Data provenance is patent US4493843A.

# System: serum cholesterol and serum triglycerides
# runDescription: Hypolipidaemic activity in rats (compound in diet, last 7 of 10 days)
# Assay type: in vivo, Male Wistar rats
# conditions: Rattus norvegicus, po, 168 h, 0.2 % w/w dose in diet, 7 days, read-out: % change in serum triglycerides compared with control
parameterMeasured: change in vivo at 0.2 % strength (%)
Lab book: enter the figure in %, no units written.

| compound | parameterMeasured | reported |
| --- | --- | --- |
| CCCCCCCCCCCCCCCCc1cc2ccc(C(=O)O)cc2[nH]1 [Compound TT, 2-(n-hexadecyl)indole-6-carboxylic acid] | change in vivo at 0.2 % strength | -6 |
| CCCCCCCCCCCc1cc2cc(C(=O)O)ccc2[nH]1 [Compound F, 2-(n-undecyl)indole-5-carboxylic acid] | change in vivo at 0.2 % strength | -73 |

Now for another entry.
Memo: CCCCCCCCCCCCCCCc1cc2c(C(=O)O)cccc2[nH]1 [Compound J, 2-(n-pentadecyl)indole-4-carboxylic acid] , reported change in vivo at 0.2 % strength: -2
